molecules and their reported tissue to tissue ratio at 1 h
experiment: in vivo; parameters: species or system mice; settings: male, NOD.Cg-Rag1tm1Mom Il2rgtm1Wjl/SzJ (NRG), mouse, iv, total radioactivity, Ratio Tumor-to-Blood
Where a SMILES comes first, the peptide text is derived from it. Bridges are numbered along the chain shown (N, C = ends). Side-chain parts run from the residue outwards. [ ]: non-standard residue; d: D form. The star is where a group is joined. X4 = O=C(O)CN1CCN(CC(=O)O)CCN(CC(=O)N[C@@H](CS(=O)(=O)O)C(=O)NCCCC[C@H](NC(=O)CNC(=O)CCCc2ccc(Cl)cc2)C(=O)*)CCN(CC(=O)O)CC1; X7 = COc1ccc(CCCC(=O)NCCCC[C@H](NC(=O)CN2CCN(CC(=O)O)CCN(CC(=O)O)CCN(CC(=O)O)CC2)C(=O)*)cc1; DOTA = O=C(O)CN1CCN(CC(=O)O)CCN(CC(=O)*)CCN(CC(=O)O)CC1; NMeLys(iPr) = CN[C@@H](CCCCNC(C)C)C(=O)O; 2Nal = N[C@@H](Cc1ccc2ccccc2c1)C(=O)O; Lys(iPr) = CC(C)NCCCC[C@H](N)C(=O)O; Cya = N[C@@H](CS(=O)(=O)O)C(=O)O
Give only the figure.

molecule	tissue to tissue ratio at 1 h
CC(C)NCCCC[C@H](NC(=O)[C@H]1CCC(=O)N[C@@H](CCCCNC(=O)[C@H](CCCCNC(=O)[C@H](CS(=O)(=O)O)NC(=O)CN2CCN(CC(=O)O)CCN(CC(=O)O)CCN(CC(=O)O)CC2)NC(=O)CNC(=O)CCCc2ccc(Cl)cc2)C(=O)N[C@@H](Cc2ccc(O)cc2)C(=O)N[C@@H](CCCCNC(C)C)C(=O)N[C@H](CCCNC(=N)N)C(=O)N[C@@H](Cc2ccc3ccccc3c2)C(=O)N[C@H](C)C(=O)N1)C(N)=O [[68Ga]Ga-BL34T1, metal not drawn] (K(X4)Y[Lys(iPr)][dR][2Nal][dA][dE][Lys(iPr)]-NH2; lactam N-7)	0.93
CC(C)NCCCC[C@H](NC(=O)[C@H]1CCC(=O)N[C@@H](CCCCNC(=O)[C@H](CS(=O)(=O)O)NC(=O)CN2CCN(CC(=O)O)CCN(CC(=O)O)CCN(CC(=O)O)CC2)C(=O)N[C@@H](Cc2ccc(O)cc2)C(=O)N(C)[C@@H](CCCCNC(C)C)C(=O)N[C@H](CCCNC(=N)N)C(=O)N[C@@H](Cc2ccc3ccccc3c2)C(=O)N[C@H](C)C(=O)N1)C(N)=O [[^68Ga]Ga-BL34N1, metal not drawn] (K([Cya-DOTA])Y[NMeLys(iPr)][dR][2Nal][dA][dE][Lys(iPr)]-NH2; lactam N-7)	37.7

Note: attention shifts to another entry.
Q) Give the measured tissue to tissue ratio at 1 h for COc1ccc(CCCC(=O)NCCCC[C@H](NC(=O)CN2CCN(CC(=O)O)CCN(CC(=O)O)CCN(CC(=O)O)CC2)C(=O)N[C@@H](CS(=O)(=O)O)C(=O)NCCCC[C@@H]2NC(=O)CC[C@H](C(=O)N[C@@H](CCCCNC(C)C)C(N)=O)NC(=O)[C@@H](C)NC(=O)[C@H](Cc3ccc4ccccc4c3)NC(=O)[C@@H](CCCNC(=N)N)NC(=O)[C@H](CCCCNC(C)C)NC(=O)[C@H](Cc3ccc(O)cc3)NC2=O)cc1 [[68Ga]Ga-BL34L6, metal not drawn] (K([Cya-X7])Y[Lys(iPr)][dR][2Nal][dA][dE][Lys(iPr)]-NH2; lactam N-7)
A) 11.6

----------
experiment: in vivo; set-up: species or system mice; conditions: male, NOD.Cg-Rag1tm1Mom Il2rgtm1Wjl/SzJ (NRG), mouse, iv, total radioactivity, Biodistribution: Lungs
Where a SMILES comes first, the peptide text is derived from it. Bridges are numbered along the chain shown (N, C = ends). [ ]: non-standard residue; d: D form. The star is where a group is joined. X1 = O=C(O)CN1CCN(CC(=O)O)CCN(CC(=O)N[C@@H](CS(=O)(=O)O)C(=O)N[C@@H](CCCCNC(=O)CCCc2ccc(I)cc2)C(=O)*)CCN(CC(=O)O)CC1; 2Nal = N[C@@H](Cc1ccc2ccccc2c1)C(=O)O; Lys(iPr) = CC(C)NCCCC[C@H](N)C(=O)O
parameter-measured: tissue uptake at 3 h (%ID/g)
Reply with just the number (in %ID/g).

Q) Give a short answer stating reported tissue uptake at 3 h for CC(C)NCCCC[C@H](NC(=O)[C@H]1CCC(=O)N[C@@H](CCCCNC(=O)[C@H](CCCCNC(=O)CCCc2ccc(I)cc2)NC(=O)[C@H](CS(=O)(=O)O)NC(=O)CN2CCN(CC(=O)O)CCN(CC(=O)O)CCN(CC(=O)O)CC2)C(=O)N[C@@H](Cc2ccc(O)cc2)C(=O)N[C@@H](CCCCNC(C)C)C(=O)N[C@H](CCCNC(=N)N)C(=O)N[C@@H](Cc2ccc3ccccc3c2)C(=O)N[C@H](C)C(=O)N1)C(N)=O [[^68Ga]Ga-BL34L11, metal not drawn] (K(X1)Y[Lys(iPr)][dR][2Nal][dA][dE][Lys(iPr)]-NH2; lactam N-7) .
A) 6.64

----------
experiment: in vivo; design: species or system mice; settings: male, NOD.Cg-Rag1tm1Mom Il2rgtm1Wjl/SzJ (NRG), mouse, iv, total radioactivity, Biodistribution: Muscle
Where a SMILES comes first, the peptide text is derived from it. Bridges are numbered along the chain shown (N, C = ends). [ ]: non-standard residue; d: D form. The star is where a group is joined. X1 = O=C(O)CN1CCN(CC(=O)O)CCN(CC(=O)N[C@@H](CS(=O)(=O)O)C(=O)N[C@@H](CCCCNC(=O)CCCc2ccc(I)cc2)C(=O)*)CCN(CC(=O)O)CC1; 2Nal = N[C@@H](Cc1ccc2ccccc2c1)C(=O)O; Lys(iPr) = CC(C)NCCCC[C@H](N)C(=O)O
parameter-measured: tissue uptake at 3 h (%ID/g)
Numeric only. Scale: %ID/g

Q) Report tissue uptake at 3 h, nothing else, for this compound: CC(C)NCCCC[C@H](NC(=O)[C@H]1CCC(=O)N[C@@H](CCCCNC(=O)[C@H](CCCCNC(=O)CCCc2ccc(I)cc2)NC(=O)[C@H](CS(=O)(=O)O)NC(=O)CN2CCN(CC(=O)O)CCN(CC(=O)O)CCN(CC(=O)O)CC2)C(=O)N[C@@H](Cc2ccc(O)cc2)C(=O)N[C@@H](CCCCNC(C)C)C(=O)N[C@H](CCCNC(=N)N)C(=O)N[C@@H](Cc2ccc3ccccc3c2)C(=O)N[C@H](C)C(=O)N1)C(N)=O [[^68Ga]Ga-BL34L11, metal not drawn] (K(X1)Y[Lys(iPr)][dR][2Nal][dA][dE][Lys(iPr)]-NH2; lactam N-7)
A) 1.08

----------
Below: a set of entries, each annotated with reported tissue uptake at 120 h.
assay: in vivo; parameters: species or system mice; settings: male, NOD.Cg-Rag1tm1Mom Il2rgtm1Wjl/SzJ (NRG), mouse, iv, total radioactivity, Biodistribution: Brain
Where a SMILES comes first, the peptide text is derived from it. Bridges are numbered along the chain shown (N, C = ends). [ ]: non-standard residue; d: D form. The star is where a group is joined. X3 = O=C(O)CN1CCN(CC(=O)O)CCN(CC(=O)N[C@@H](CS(=O)(=O)O)C(=O)N[C@@H](CCCCNC(=O)CCCc2ccc(Br)cc2)C(=O)*)CCN(CC(=O)O)CC1; X1 = O=C(O)CN1CCN(CC(=O)O)CCN(CC(=O)N[C@@H](CS(=O)(=O)O)C(=O)N[C@@H](CCCCNC(=O)CCCc2ccc(I)cc2)C(=O)*)CCN(CC(=O)O)CC1; 2Nal = N[C@@H](Cc1ccc2ccccc2c1)C(=O)O; Lys(iPr) = CC(C)NCCCC[C@H](N)C(=O)O
In your response, the unit should come after the numeric value.

molecule	value-reported
CC(C)NCCCC[C@H](NC(=O)[C@H]1CCC(=O)N[C@@H](CCCCNC(=O)[C@H](CCCCNC(=O)CCCc2ccc(Br)cc2)NC(=O)[C@H](CS(=O)(=O)O)NC(=O)CN2CCN(CC(=O)O)CCN(CC(=O)O)CCN(CC(=O)O)CC2)C(=O)N[C@@H](Cc2ccc(O)cc2)C(=O)N[C@@H](CCCCNC(C)C)C(=O)N[C@H](CCCNC(=N)N)C(=O)N[C@@H](Cc2ccc3ccccc3c2)C(=O)N[C@H](C)C(=O)N1)C(N)=O [[^177Lu]Lu-BL34L20, metal not drawn] (K(X3)Y[Lys(iPr)][dR][2Nal][dA][dE][Lys(iPr)]-NH2; lactam N-7)	0.02 %ID/g

Now consider the entry below.
Q) Tell me its tissue uptake at 120 h given CC(C)NCCCC[C@H](NC(=O)[C@H]1CCC(=O)N[C@@H](CCCCNC(=O)[C@H](CCCCNC(=O)CCCc2ccc(I)cc2)NC(=O)[C@H](CS(=O)(=O)O)NC(=O)CN2CCN(CC(=O)O)CCN(CC(=O)O)CCN(CC(=O)O)CC2)C(=O)N[C@@H](Cc2ccc(O)cc2)C(=O)N[C@@H](CCCCNC(C)C)C(=O)N[C@H](CCCNC(=N)N)C(=O)N[C@@H](Cc2ccc3ccccc3c2)C(=O)N[C@H](C)C(=O)N1)C(N)=O [[^177Lu]Lu-BL34L11, metal not drawn] (K(X1)Y[Lys(iPr)][dR][2Nal][dA][dE][Lys(iPr)]-NH2; lactam N-7) as the entry.
A) 0.05 %ID/g

This collection of values is drawn from patent US20250242064A1.
